Data origin, for the record: ChEMBL document CHEMBL5528071

- PROTOCOL_SUMMARY: Ratio of drug concentration in Hannover Wistar rat brain to plasma administered orally for 2 days and measured 1 hrs post last dose by HPLC-MS/MS analysis
- Assay type: ADME
- MEASUREMENT_CONDITIONS: route po, read-out: BPR
PROPERTY_LABEL: Kp at 49 h

a = C[C@@H]1CCCN1CCCOc1ccc2c(c1)CC[C@H]1C3=CCC(=O)N[C@@]3(C)CC[C@H]21
b = C[C@@H]1CCCN1CCCOc1ccc2c(c1)CC[C@@H]1[C@@H]2CC[C@@]2(C)[C@H]1CCC(=O)N2C
Lab note: check whether a or b has the lower measured Kp at 49 h. Lab note: record the label of whichever item you select.
a
(a: 0.6, b: 1.4)
